target: EPHA8 (human)
assay text: KINOMEscan competition binding
condition set: compound 10.0 µM
metric name: kinase still bound, per cent of control (%)

Cn1c(=O)n(-c2ccc(C(C)(C)C#N)cc2)c2c3cc(-c4cnc5ccccc5c4)ccc3ncc21 | 100
O=C1Nc2ccc(I)cc2/C1=C/c1cc(Br)c(O)c(Br)c1 | 100
Cc1ccc2nc(NCCN)c3ncc(C)n3c2c1 | 100
CN(C)C/C=C/C(=O)Nc1cccc(Nc2ncc3c(n2)N(C)c2ccccc2C(=O)N3C)c1 | 90
CC[C@@H]1C(=O)N(C)c2cnc(Nc3ccc(C(=O)NC4CCN(C)CC4)cc3OC)nc2N1C1CCCC1 | 100
Cc1cc([C@@H](C)Nc2ccccc2C(=O)O)c2nc(N3CCOCC3)cc(=O)n2c1 | 96
Nc1ccc(-c2ccc3ncc4ccc(=O)n(-c5cccc(C(F)(F)F)c5)c4c3c2)cn1 | 99
OCCCNc1cc(-c2ccnc(Nc3cccc(Cl)c3)n2)ccn1 | 100
C[C@@H](Oc1cc(-n2cnc3ccc(CN4CCN(C)CC4)cc32)sc1C(N)=O)c1ccccc1C(F)(F)F | 90
CCN1CCN(Cc2ccc(Nc3ncc4c(n3)N(C)c3ccccc3C(=O)N4C)cc2C(F)(F)F)CC1 | 100
C=CC(=O)Nc1cccc(Oc2nc(Nc3ccc(N4CCN(C)CC4)cc3OC)ncc2Cl)c1 | 100
Cc1ccc(NC(=O)c2cccc(C(C)(C)C#N)c2)cc1Nc1ccc2ncn(C)c(=O)c2c1 | 2.1
COc1cc(N2CCN(C)CC2)ccc1Nc1nc(N)c(C(=O)c2c(Cl)cccc2Cl)s1 | 73
N#Cc1c(NC(=O)c2cccc3ccccc23)sc2c1CCCC2 | 79
C=CC(=O)Nc1cc(NC(=O)c2ccc(C)c(NC(=O)c3ccno3)c2)cc(C(F)(F)F)c1 | 3.6
O=C(NOC[C@H](O)CO)c1ccc(F)c(F)c1Nc1ccc(I)cc1F | 94

The values you see were collected from the kinase profiling compilation of Christmann-Franck et al. (2016).
